biological target: recombinant ROCK2 (amino acids 1-552) (Homo sapiens (Human)); assay: Z'-lyte kinase assay, ROCK2
Sequence (O75116 1-552): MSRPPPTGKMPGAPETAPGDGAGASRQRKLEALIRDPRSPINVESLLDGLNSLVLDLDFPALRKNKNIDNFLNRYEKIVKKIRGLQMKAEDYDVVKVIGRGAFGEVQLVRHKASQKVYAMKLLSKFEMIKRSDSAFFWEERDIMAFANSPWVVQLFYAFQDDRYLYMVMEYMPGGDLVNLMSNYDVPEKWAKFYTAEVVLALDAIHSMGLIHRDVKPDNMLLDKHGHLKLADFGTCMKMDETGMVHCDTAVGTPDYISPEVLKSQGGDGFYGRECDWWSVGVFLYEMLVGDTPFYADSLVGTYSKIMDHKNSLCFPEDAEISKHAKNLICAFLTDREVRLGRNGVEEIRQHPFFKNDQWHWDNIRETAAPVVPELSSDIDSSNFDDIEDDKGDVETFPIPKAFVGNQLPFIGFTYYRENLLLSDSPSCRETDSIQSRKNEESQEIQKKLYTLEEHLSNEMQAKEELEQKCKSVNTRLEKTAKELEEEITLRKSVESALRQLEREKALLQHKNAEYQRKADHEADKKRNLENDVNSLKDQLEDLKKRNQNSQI
valueType: IC50 (nM)

                                   molecule  valuetype  censoringqualifier  valueobserved
0  COCCNC(C(=O)N(C)c1ccc(-c2cn[nH]c2)cc1)c1cccc(OC)c1 (centres unmarked)       IC50                   >           1000
1  COc1cccc(C2C(=O)N(c3ccc(-c4cn[nH]c4)cc3)CCCN2CC2CC2)c1 (centres unmarked)       IC50                   >           1000
2  CNC(C(=O)Nc1ccc(-c2cn[nH]c2)cc1)c1ccnc(OC)c1 (centres unmarked)       IC50                   =             14
3  CNC(C(=O)Nc1ccc(-c2cn[nH]c2)cc1)c1ccccc1OC (centres unmarked)       IC50                   =              3
4  CCNC(C(=O)Nc1ccc(-c2cn[nH]c2)cc1)c1cccc(OC)c1 (centres unmarked)       IC50                   =            6.3
